Target: Diacylglycerol lipase-beta (Mus musculus) (UniProt Q91WC9)
Sequence (Q91WC9 whole entry, looked up): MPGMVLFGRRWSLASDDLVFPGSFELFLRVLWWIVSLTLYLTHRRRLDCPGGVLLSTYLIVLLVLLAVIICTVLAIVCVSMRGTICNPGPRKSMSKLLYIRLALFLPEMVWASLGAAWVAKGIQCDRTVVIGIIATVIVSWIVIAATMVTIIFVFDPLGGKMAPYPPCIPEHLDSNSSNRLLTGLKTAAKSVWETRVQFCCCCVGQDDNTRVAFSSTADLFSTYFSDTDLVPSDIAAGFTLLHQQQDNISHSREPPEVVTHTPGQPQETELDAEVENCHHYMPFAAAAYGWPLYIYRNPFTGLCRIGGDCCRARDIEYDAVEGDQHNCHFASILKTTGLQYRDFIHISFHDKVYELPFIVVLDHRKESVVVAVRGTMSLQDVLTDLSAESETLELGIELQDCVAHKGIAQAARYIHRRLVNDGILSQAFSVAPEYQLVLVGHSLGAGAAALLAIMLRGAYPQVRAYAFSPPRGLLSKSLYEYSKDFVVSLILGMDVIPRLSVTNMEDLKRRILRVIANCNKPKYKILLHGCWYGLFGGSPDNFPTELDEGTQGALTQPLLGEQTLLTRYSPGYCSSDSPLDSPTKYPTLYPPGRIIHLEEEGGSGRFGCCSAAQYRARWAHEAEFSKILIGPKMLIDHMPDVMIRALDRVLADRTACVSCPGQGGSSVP
Experiment: mouse DAGLb substrate turnover inhibition – biochemical, LC-MS, overexpressed mouse DAGLb (AID 602415)
Conditions: HEK293T membranes overexpressing mDAGLb, SAG turnover LC-MS; at 10 µM; active compounds read low
Measurement Type: substrate turnover (%)
Numbers only, in %.

# annotated cases, reported substrate turnover shown
Entry under test: O=C(NN1C(=O)/C(=C/c2ccc(O)c([N+](=O)[O-])c2)SC1=S)c1ccccc1Cl . Its substrate turnover was 59

Measured substrate turnover of Nc1nc(-c2ccccc2)c(N=Nc2ccc(Cl)cc2)s1 : 23

The recorded substrate turnover for CC(C1SC(=S)NC1=O)C1SC(=S)NC1=O (centres undefined) is 67

Kindly consider the entry below.
Memo: Nc1ccc2c(c1)C(=O)c1cc(Cl)c(Cl)cc1-2 , reported substrate turnover: 47
